target: progesterone receptor (PR) (Homo sapiens, UniProt P06401); assay: PR-mediated induction of transcription by R5020 in T47D K5pLuc cells (luciferase reporter and endogenous alkaline phosphatase); assay type: cell-based; settings: T47D, 4 µM; AP (alkaline phosphatase); R5020 1.0 nM
Sequence (P06401 679-933 limits assumed): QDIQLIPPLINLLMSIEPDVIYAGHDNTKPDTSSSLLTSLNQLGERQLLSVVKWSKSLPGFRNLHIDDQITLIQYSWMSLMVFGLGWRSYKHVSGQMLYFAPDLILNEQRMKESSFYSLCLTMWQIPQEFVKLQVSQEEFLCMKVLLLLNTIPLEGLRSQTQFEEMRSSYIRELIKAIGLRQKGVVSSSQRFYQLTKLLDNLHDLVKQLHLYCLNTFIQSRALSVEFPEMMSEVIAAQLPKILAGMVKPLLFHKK
Attribute: inhibition at 4 µM

# compound, inhibition at 4 µM
records = [
    ("O=c1cc(-c2ccc(O)cc2)oc2ccccc12 [4′-hydroxyflavone]", "31%"),
    ("O=c1c(O)c(-c2ccc(O)c(O)c2)oc2cc(O)cc(O)c12 [3,5,7,3′,4′-pentahydroxyflavone]", "52%"),
    ("O=c1cc(-c2ccc(O)cc2)oc2cc(O)ccc12 [7,4′-dihydroxyflavone]", "41%"),
    ("O=c1cc(-c2ccc(O)c(O)c2)oc2cccc(O)c12 [5,3′,4′-trihydroxyflavone]", "46%"),
    ("O=c1cc(-c2ccccc2)oc2cccc(O)c12 [5-hydroxyflavone]", "26%"),
    ("O=c1cc(-c2ccc(O)c(O)c2)oc2ccccc12 [3′,4′-dihydroxyflavone]", "8%"),
    ("O=c1cc(-c2ccc(O)cc2)oc2cccc(O)c12 [5,4′-dihydroxyflavone]", "23%"),
    ("O=c1c(-c2ccc(O)cc2)coc2cc(O)ccc12 [7,4′-dihydroxyisoflavone]", "41%"),
    ("O=c1cc(-c2ccccc2)oc2cc(O)cc(O)c12 [5,7-dihydroxyflavone]", "78%"),
    ("COc1ccc([C@@H]2CC(=O)c3c(O)cc(O)cc3O2)cc1O [5,7,3′-triOH, 4′methoxyflavanone]", "8%"),
    ("O=c1cc(-c2ccccc2)oc2ccccc12 [flavone]", "10%"),
    ("O=c1cc(-c2ccc(O)c(O)c2)oc2cc(O)cc(O)c12 [5,7,3′,4′-tetrahydroxyflavone]", "82%"),
    ("O=c1cc(-c2ccc(O)c(O)c2)oc2cc(O)ccc12 [7,3′,4′-trihydroxyflavone]", "13%"),
]

* * *

target: human AR (Homo sapiens); test: AR-mediated induction of PSA-luciferase reporter by R1881 in HeLa13 cells; settings: R1881; read-out: IC50, AR antagonism
experimental.endpoint: IC50

# compound, target.or.system, recorded.measurement
rows = [
    ("O=c1cc(-c2ccc(O)cc2)oc2cccc(O)c12 [5,4′-dihydroxyflavone]", "human AR (Homo sapiens)", "~500 nM"),
]

* * *

target: human AR (Homo sapiens, UniProt P10275); construct: expressed in transfected cells; host or cells: HeLa13 (HeLa 13); assay: AR-mediated induction of PSA-luciferase reporter by R1881 in HeLa13 cells; format: cell-based; settings: read-out: % Inhibition of AR-Mediated Gene Induction
Sequence (P10275 whole entry): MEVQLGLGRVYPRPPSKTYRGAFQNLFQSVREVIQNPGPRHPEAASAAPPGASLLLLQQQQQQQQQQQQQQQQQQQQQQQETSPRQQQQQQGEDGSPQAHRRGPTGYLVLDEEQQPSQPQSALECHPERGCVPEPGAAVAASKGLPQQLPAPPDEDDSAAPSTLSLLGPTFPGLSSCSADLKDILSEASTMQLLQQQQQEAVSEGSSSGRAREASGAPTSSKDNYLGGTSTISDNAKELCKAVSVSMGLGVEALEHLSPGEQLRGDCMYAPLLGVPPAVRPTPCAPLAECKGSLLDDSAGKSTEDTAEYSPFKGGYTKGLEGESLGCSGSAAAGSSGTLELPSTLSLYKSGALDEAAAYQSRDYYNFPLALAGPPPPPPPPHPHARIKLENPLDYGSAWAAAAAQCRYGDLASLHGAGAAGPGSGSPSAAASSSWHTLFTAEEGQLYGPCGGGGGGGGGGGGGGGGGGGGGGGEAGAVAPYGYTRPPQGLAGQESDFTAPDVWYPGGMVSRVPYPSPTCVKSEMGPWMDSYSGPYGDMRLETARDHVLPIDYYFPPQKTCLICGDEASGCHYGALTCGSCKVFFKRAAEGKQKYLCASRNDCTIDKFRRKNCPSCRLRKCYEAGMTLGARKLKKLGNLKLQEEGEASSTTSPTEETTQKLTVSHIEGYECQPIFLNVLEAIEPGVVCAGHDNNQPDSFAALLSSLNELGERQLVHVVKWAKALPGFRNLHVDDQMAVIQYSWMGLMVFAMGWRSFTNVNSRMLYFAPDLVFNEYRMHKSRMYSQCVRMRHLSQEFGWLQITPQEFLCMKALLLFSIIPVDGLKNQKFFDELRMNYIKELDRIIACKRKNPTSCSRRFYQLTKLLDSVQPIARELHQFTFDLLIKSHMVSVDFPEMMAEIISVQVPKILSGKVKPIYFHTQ
Please enter label 1 where inhibition at 4 µM is greater than or equal to 20%, and label 0 where it is lower.

# compound, category
data = [
    ("O=C1CC(c2ccc(O)cc2)Oc2ccccc21 (centres unmarked) [4′-hydroxyflavanone]", "label 0"),
    ("O=c1cc(-c2ccc(O)cc2)oc2cc(O)ccc12 [7,4′-dihydroxyflavone]", "label 0"),
    ("O=c1cc(-c2ccc(O)c(O)c2)oc2cccc(O)c12 [5,3′,4′-trihydroxyflavone]", "label 1"),
    ("O=C1CC(c2ccc(O)c(O)c2)Oc2cc(O)cc(O)c21 (centres unmarked) [5,7,3′,4′-tetrahydroxyflavanone]", "label 1"),
    ("COc1ccc([C@@H]2CC(=O)c3c(O)cc(O)cc3O2)cc1O", "label 0"),
]
